Measured Activity values are reported for all entries that follow.
Molecular target: Adenosine receptor A1 (Homo sapiens)
Assay: Activity at human recombinant adenosine A1 receptor expressed in CHO cells assessed as inhibition of forskolin-stimulated cAMP accumulation in presence of CPA at 1 uM relative to control
Type: functional, cell-based
Design: scale not given: the % may be the effect or the level left

Which Activity value is on record for Nc1sc2cnccc2c1C(=O)c1cccs1 ?
107%

Which Activity value is on record for Cc1ccc(C(=O)c2c(N)sc3cnccc23)cc1 ?
107%

---

Measured Activity values are reported for all entries that follow.
Target: Adenosine receptor A1 (Homo sapiens)
Assay: Activity at human recombinant adenosine A1 receptor expressed in CHO cells assessed as inhibition of forskolin-stimulated cAMP accumulation in presence of CPA at 1 uM relative to control
Type: functional, cell-based
Design: scale not given: the % may be the effect or the level left
Give just the number in %; leave the unit off.

1. Nc1sc2cnccc2c1C(=O)c1ccc(Br)cc1 :: 84

Which Activity value is on record for Cc1sc(N)c(C(=O)c2cccc(C(F)(F)F)c2)c1C ?
81

Which Activity value is on record for Nc1sc2cnccc2c1C(=O)c1cccc(C(F)(F)F)c1 ?
82

Which Activity value is on record for Nc1sc2cnccc2c1C(=O)c1ccc(Cl)c(Cl)c1 ?
103

Which Activity value is on record for Nc1sc2cnccc2c1C(=O)c1ccccc1Cl ?
97

Which Activity value is on record for COc1ccc(C(=O)c2c(N)sc3cnccc23)cc1 ?
90

---

Molecular target: Adenosine receptor A1 (Homo sapiens) (UniProt P30542)
Sequence (P30542 whole entry): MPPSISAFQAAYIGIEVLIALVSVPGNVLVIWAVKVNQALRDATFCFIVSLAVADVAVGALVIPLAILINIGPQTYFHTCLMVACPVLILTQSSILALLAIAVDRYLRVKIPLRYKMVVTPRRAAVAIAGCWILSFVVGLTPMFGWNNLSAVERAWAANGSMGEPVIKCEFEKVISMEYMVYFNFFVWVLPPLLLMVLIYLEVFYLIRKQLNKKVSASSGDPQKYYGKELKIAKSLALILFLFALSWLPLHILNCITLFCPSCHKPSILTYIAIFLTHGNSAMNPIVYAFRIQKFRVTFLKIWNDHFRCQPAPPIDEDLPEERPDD
Test: Activity at human recombinant adenosine A1 receptor expressed in CHO cells assessed as inhibition of forskolin-stimulated cAMP accumulation in presence of CPA at 0.01 uM relative to control
Format: functional, cell-based
Design: scale not given: the % may be the effect or the level left
PROPERTY LABEL: Activity (%)
Give just the number in %; leave the unit off.

Some molecules with known Activity results, for comparison:
1) Nc1sc2cnccc2c1C(=O)c1ccc(Cl)c(Cl)c1 :: 113
2) Nc1sc2cnccc2c1C(=O)c1cccs1 :: 111
3) Nc1sc2cnccc2c1C(=O)c1cccc(C(F)(F)F)c1 :: 101
4) Nc1sc2cnccc2c1C(=O)c1ccc(Cl)cc1 :: 104
5) Cc1sc(N)c(C(=O)c2cccc(C(F)(F)F)c2)c1C :: 97

Which Activity value is on record for Cc1ccc(C(=O)c2c(N)sc3cnccc23)cc1 ?
102

Which Activity value is on record for Nc1sc2cnccc2c1C(=O)c1ccccc1Cl ?
103

---

Measured inhibition values are reported for all entries that follow.
Molecular target: Adenosine receptor A1 (Homo sapiens)
Assay: Displacement of [3H]DPCPX from human adenosine A1 receptor expressed in CHO cells at 10 uM
Format: cell-based
Give the number first and the unit second.

Some molecules with known inhibition results, for comparison:
1) Nc1sc2cnccc2c1C(=O)c1ccccc1 :: 0%
2) Nc1sc2cnccc2c1C(=O)c1ccc(Cl)cc1 :: 50%
3) Nc1sc2cnccc2c1C(=O)c1cccc2ccccc12 :: 0%
4) COc1ccc(C(=O)c2c(N)sc3cnccc23)cc1 :: 0%
5) Nc1sc2cnccc2c1C(=O)c1cccs1 :: 35%
6) Nc1sc2cnccc2c1C(=O)c1ccc(Br)cc1 :: 0%
7) Nc1sc2cnccc2c1C(=O)c1ccccc1Cl :: 0%
8) Cc1sc(N)c(C(=O)c2cccc(C(F)(F)F)c2)c1C :: 0%

Reported inhibition for Adenosine receptor A1 (Homo sapiens), given Nc1sc2cnccc2c1C(=O)c1cccc(C(F)(F)F)c1 ?
0%

Reported inhibition for Adenosine receptor A1 (Homo sapiens), given Nc1sc2cnccc2c1C(=O)c1ccc(Cl)c(Cl)c1 ?
0%

Reported inhibition for Adenosine receptor A1 (Homo sapiens), given Cc1ccc(C(=O)c2c(N)sc3cnccc23)cc1 ?
45%

From: ChEMBL document CHEMBL1139691
